- Tested on: PC-3
- experiment-summary: NCI tumour cell line growth inhibition, 48 h
Activity calls are given as the source filed them. Rule as the data show it: active = GI50 up to about 1.1 µM and inactive = higher.
Outcome codes: active, inactive

{"columns": ["molecule", "class-name"],
 "data": [
  ["O=C(O)CC1OCC=C2CN3CCC45C6=CC(=O)C(O)=C([N+](=O)[O-])C6=NC4C1C2CC35 (stereo unspecified)", "inactive"],
  ["O=C(NC/C(Cl)=C/Cl)Nc1c2ccccc2nc2ccccc12", "inactive"],
  ["COP(=O)(OC)[C@H](O)[C@H]1C[C@@H]1c1ccccc1", "inactive"],
  ["CC(C)C(Sc1nc(N)nc2nc[nH]c12)C(=O)O (stereo unspecified)", "inactive"],
  ["NS(=O)(=O)c1ccc(NC(=O)N/N=C/c2ccccc2O)cc1", "inactive"],
  ["O=[N+]([O-])c1ccc(-[n+]2ccc3ccccc3c2)c([N+](=O)[O-])c1", "inactive"],
  ["COCCNC1CCC(=O)c2[nH]c3ccccc3c21 (stereo unspecified)", "inactive"],
  ["Cc1c(Cc2ccccc2)n(C(C)OCCN(OC(=O)Oc2ccccc2)C(=O)Oc2ccccc2)c(=O)[nH]c1=O (stereo unspecified)", "inactive"],
  ["CCCCCCCCCCCCCCC(O)C[N+](C)(CCO)CCO (stereo unspecified)", "inactive"],
  ["Clc1ccc(Nc2nnc(CNc3ccc(-c4nnc(Nc5ccc(Cl)cc5)o4)cc3)o2)cc1", "inactive"],
  ["O=c1cc(-c2ccccc2)[nH]c2cc(F)c(F)cc12", "active"]
]}

====

// GI50 lookup, one value per entry
- System: NCI-H522
- experiment-summary: NCI tumour cell line growth inhibition, 48 h
Active and inactive are the calls of the source. No stated cut-off is given here; in the data, active = GI50 up to about 1.1 µM and inactive = higher.

{"columns": ["compound", "GI50"],
 "data": [
  ["C=C1[C@H](OC(=O)C(C)C)[C@@H](OC(C)=O)[C@@H](OC(C)=O)C(C)(C)[C@@H]2O[C@H]2[C@@H](C)C(=O)[C@@]2(OC(C)=O)C[C@@](C)(OC(C)=O)[C@H](OC(C)=O)[C@@H]2[C@H]1OC(C)=O", "> 100 µM (inactive)"],
  ["CC12CCCC(O)C1CCC1=CC3(CCC12)SCCS3 (stereo not given)", "> 10 µM (inactive)"],
  ["c1ccc(-c2nn(-c3ccccc3)[n+](-c3ccccc3)n2)cc1", "> 37.9 µM (inactive)"],
  ["O=c1c2ccc(Cl)cc2oc2c(CNc3ccc(S(=O)(=O)Nc4ncccn4)cc3)cccc12", "> 100 µM (inactive)"],
  ["O=C1C(Cl)C(c2cc3cc(Br)ccc3nc2Cl)N1c1ccc(Cl)cc1 (stereo not given)", "3.95 µM (inactive)"],
  ["COC1C=CC(O)C(CO)O1 (stereo not given)", "> 100 µM (inactive)"],
  ["O=C(NC(c1ccccc1)C(O)C(=O)OCc1ccc2c(c1)C(=O)c1ccccc1C2=O)c1ccccc1 (stereo not given)", "14.8 µM (inactive)"],
  ["O=C(CSc1ncccn1)N/N=C/c1ccccc1OCc1ccccc1", "28.4 µM (inactive)"],
  ["O=C1c2c(Br)sc(Br)c2[C@@H](NC(=O)C(F)(F)F)C1Br (stereo not given in full)", "2.03 µM (inactive)"],
  ["N=C(N)NCCCC(Nc1c2ccccc2nc2ccccc12)C(=O)O (stereo not given)", "44 µM (inactive)"],
  ["O=S(=O)(O)C(Cc1nc2ccccc2[nH]1)S(=O)(=O)OCCC1S(=O)(=O)OCCOS1(=O)=O (stereo not given)", "> 100 µM (inactive)"],
  ["COc1cc(/C=N/Nc2nnc3c4ccccc4c4ncccc4c3n2)cc(OC)c1OC", "2.47 µM (inactive)"],
  ["O=C(O)Cc1c(-c2ccc([N+](=O)[O-])cc2)c(=O)oc2cc(O)ccc12", "29 µM (inactive)"],
  ["O=C(O)c1cccc(S(=O)(=O)NN2C(=O)CSC2c2ccccc2)c1 (stereo not given)", "27.6 µM (inactive)"],
  ["COc1ccc(/C=C\\c2cc(OC)c(OC(C)=O)c(OC)c2)cc1", "15.5 µM (inactive)"],
  ["C/C=C1/CC(C(=O)OC)N(C(=O)OCc2ccccc2)C1=S (stereo not given)", "> 100 µM (inactive)"],
  ["[N-]=[N+]=NC1=C(N=[N+]=[N-])c2cccc3cccc(c23)C1=O", "> 100 µM (inactive)"],
  ["Cc1ccc2oc(=O)c(C(=O)Nc3nc(C45CC6CC(CC(C6)C4)C5)cs3)cc2c1", "> 100 µM (inactive)"],
  ["COc1ccc(C2=C(Cl)C(=O)O/C2=C\\c2ccc(OC)c(Br)c2)cc1Cl", "25.6 µM (inactive)"],
  ["N#C/C(=C\\c1cccc(O)c1O)C(N)=O", "21 µM (inactive)"]
]}
